Record set of Kd for target or system VEGF (Homo sapiens, UniProt P15692).
One number for each entry, in nM.

CC(C)CCC[C@@H](C)[C@H]1CC[C@H]2[C@@H]3CC[C@H]4C[C@@H](O[C@H]5O[C@H](COS(=O)(=O)O)[C@@H](OS(=O)(=O)O)[C@H](OS(=O)(=O)O)[C@@H]5O[C@H]5O[C@H](COS(=O)(=O)O)[C@@H](OS(=O)(=O)O)[C@H](OS(=O)(=O)O)[C@@H]5OS(=O)(=O)O)CC[C@]4(C)[C@H]3CC[C@]12C [Compound 33] ... 1300
CC(C)CCCC(C)C1CCC2C3CC=C4CC(OC5OC(COS(=O)(=O)O)C(OS(=O)(=O)O)C(OS(=O)(=O)O)C5OC5OC(COS(=O)(=O)O)C(OS(=O)(=O)O)C(OC6OC(COS(=O)(=O)O)C(OS(=O)(=O)O)C(OC7OC(COS(=O)(=O)O)C(OS(=O)(=O)O)C(OS(=O)(=O)O)C7OS(=O)(=O)O)C6OS(=O)(=O)O)C5OS(=O)(=O)O)CCC4(C)C3CCC12C (stereo not drawn) [Compound 17] ... 24
CC(=O)OC1CC2C(CCC3CC(OS(=O)(=O)O)CCC32C)C2CCC(C(C)CCC(=O)NC3OC(COS(=O)(=O)O)C(OC4OC(COS(=O)(=O)O)C(OC5OC(COS(=O)(=O)O)C(OC6OC(COS(=O)(=O)O)C(OS(=O)(=O)O)C(OS(=O)(=O)O)C6OS(=O)(=O)O)C(OS(=O)(=O)O)C5OS(=O)(=O)O)C(OS(=O)(=O)O)C4OS(=O)(=O)O)C(OS(=O)(=O)O)C3OS(=O)(=O)O)C12C (stereo not drawn) [Compound 83] ... 7.95

For the 3 compounds below, give their Kd values.
1. CC(C)CCCC(C)C1CCC2C3CCC4CC(OCC(=O)NC5OC(COS(=O)(=O)O)C(OC6OC(COS(=O)(=O)O)C(OC7OC(COS(=O)(=O)O)C(OS(=O)(=O)O)C(OS(=O)(=O)O)C7OS(=O)(=O)O)C(OS(=O)(=O)O)C6OS(=O)(=O)O)C(OS(=O)(=O)O)C5OS(=O)(=O)O)CCC4(C)C3CCC12C (stereo not drawn) [Compound 134]
2. CC(C)CCCC(C)C1CCC2C3CCC4CC(OC(C(OS(=O)(=O)[O-])C(OS(=O)(=O)O)C(OC5OC(COS(=O)(=O)O)C(OC6OC(COS(=O)(=O)O)C(OC7OC(COS(=O)(=O)O)C(OS(=O)(=O)O)C(OS(=O)(=O)O)C7OS(=O)(=O)O)C(OS(=O)(=O)O)C6OS(=O)(=O)O)C(OS(=O)(=O)O)C5OS(=O)(=O)O)C(COS(=O)(=O)O)OS(=O)(=O)O)[n+]5ccccc5)CCC4(C)C3CCC12C (stereo not drawn) [Compound 140]
3. CC(C)CCCC(C)C1CCC2C3CCC4CC(OCc5cn(C6OC(COS(=O)(=O)O)C(OC7OC(COS(=O)(=O)O)C(OS(=O)(=O)O)C(OS(=O)(=O)O)C7OS(=O)(=O)O)C(OS(=O)(=O)O)C6OS(=O)(=O)O)nn5)CCC4(C)C3CCC12C (stereo not drawn) [Compound 93]

Ans.
[1080, 12, 1600]
